- PROCEDURE TEXT: Volatility by thermogravometric analysis (TGA) weight loss at elevated temperature
- Assay type: physicochemical
- TEST CONDITIONS: 120° C., linear region of weight loss curve
Parameter Rate of Loss: see the listing below.
Please state the figure in µg/min; there is no need to write the unit.

O=C(O)COc1ccc(Cl)cc1Cl.O=C([O-])COc1ccc(Cl)cc1Cl.[K+] [2,4-D K Half Salt, 2,4-D Potassium Half Salt] : 0.132
CN(C)CCO.O=C(O)COc1ccc(Cl)cc1Cl : 0.905
CCCCC(CC)COC(=O)COc1ccc(Cl)cc1Cl (centres unmarked) : 11
O=C(O)COc1ccc(Cl)cc1Cl : 2.29

Turning to the following compound.
Req: Tell us which Rate of Loss value is on record for `CNC.O=C(O)COc1ccc(Cl)cc1Cl`
Resp: 1.5
